measured_on: SpRvs167
test_method_notes: SPOT peptide array binding signal intensity (averaged, normalized) (arbitrary units (background-subtracted, floor 0; scale differs between SH3 domains)); higher = stronger binding of the SH3 domain to the peptide
Recorded measurements of SPOT peptide array binding signal intensity, one per entry
Field format: numeric only.

Example cases with answers are listed next.
binder: PVLPPPRSPNRPTLS
readout_value: 1240
//
binder: HPRFVSPRIPSRIVK
readout_value: 254
//
binder: HRRRRVFSIPSLKSI
readout_value: 55.8

Task: So what's the measured SPOT peptide array binding signal intensity for this one? "NMLSRPRLAKLPSIR"
Output: 32.2

Task: So what's the measured SPOT peptide array binding signal intensity for this one? "PPLPRAPPVPPATFE"
Output: 88

Task: So what's the measured SPOT peptide array binding signal intensity for this one? "GKLKHIPRRPYEIER"
Output: 3.17

Task: So what's the measured SPOT peptide array binding signal intensity for this one? "RLSRLLLSLPPESFT"
Output: 13.7

Values were extracted from the supplement of paper PMC4466140.
